Assay: Half-life in phosphate buffer (0.05 M, mu = 0.15) at 30 degree Celsius and pH 6.93
Type: ADME
experimentalReadout: half-life (h)
Answers are plain numbers, in h.

The compound identified as COc1cccc(OC)c1C(=O)NC1C(=O)N2C1SC(C)(C)[C@@H]2C(=O)OCOC(=O)C1=CN(C)C=CC1 (stereo partly specified) registered its half-life at 3.97

====

For each entry below, report its half-life value.
Assay: Half-life in phosphate buffer (0.05 M, mu = 0.15) at 30 degree Celsius with pH 6.07
Type: ADME
One number for each entry, in min.

Look over these answered cases.
1. Cc1onc(-c2ccccc2Cl)c1C(=O)NC1C(=O)N2C1SC(C)(C)[C@@H]2C(=O)OCOC(=O)c1ccc[n+](C)c1.[I-] (some centres undefined)
56
2. Cc1onc(-c2c(Cl)cccc2Cl)c1C(=O)NC1C(=O)N2C1SC(C)(C)[C@@H]2C(=O)OCOC(=O)c1ccc[n+](C)c1.[I-] (some centres undefined)
44.4
3. Cc1onc(-c2ccccc2)c1C(=O)NC1C(=O)N2C1SC(C)(C)[C@@H]2C(=O)OCOC(=O)c1ccc[n+](C)c1.[I-] (some centres undefined)
49

Moving on to another molecule below.
# half-life (molecule: COc1cccc(OC)c1C(=O)NC1C(=O)N2C1SC(C)(C)[C@@H]2C(=O)OCOC(=O)c1ccc[n+](C)c1.[I-] (some centres undefined) ) is 58.6

Every entry's value here was drawn from ChEMBL document CHEMBL1124554.
